Hello, the source for this data is ChEMBL document CHEMBL4007434, in case you need it.

- TESTED_ON: Epidermal growth factor receptor (Homo sapiens, UniProt P00533, L858R/T790M)
- Sequence (P00533 whole entry T790M/L858R, looked up): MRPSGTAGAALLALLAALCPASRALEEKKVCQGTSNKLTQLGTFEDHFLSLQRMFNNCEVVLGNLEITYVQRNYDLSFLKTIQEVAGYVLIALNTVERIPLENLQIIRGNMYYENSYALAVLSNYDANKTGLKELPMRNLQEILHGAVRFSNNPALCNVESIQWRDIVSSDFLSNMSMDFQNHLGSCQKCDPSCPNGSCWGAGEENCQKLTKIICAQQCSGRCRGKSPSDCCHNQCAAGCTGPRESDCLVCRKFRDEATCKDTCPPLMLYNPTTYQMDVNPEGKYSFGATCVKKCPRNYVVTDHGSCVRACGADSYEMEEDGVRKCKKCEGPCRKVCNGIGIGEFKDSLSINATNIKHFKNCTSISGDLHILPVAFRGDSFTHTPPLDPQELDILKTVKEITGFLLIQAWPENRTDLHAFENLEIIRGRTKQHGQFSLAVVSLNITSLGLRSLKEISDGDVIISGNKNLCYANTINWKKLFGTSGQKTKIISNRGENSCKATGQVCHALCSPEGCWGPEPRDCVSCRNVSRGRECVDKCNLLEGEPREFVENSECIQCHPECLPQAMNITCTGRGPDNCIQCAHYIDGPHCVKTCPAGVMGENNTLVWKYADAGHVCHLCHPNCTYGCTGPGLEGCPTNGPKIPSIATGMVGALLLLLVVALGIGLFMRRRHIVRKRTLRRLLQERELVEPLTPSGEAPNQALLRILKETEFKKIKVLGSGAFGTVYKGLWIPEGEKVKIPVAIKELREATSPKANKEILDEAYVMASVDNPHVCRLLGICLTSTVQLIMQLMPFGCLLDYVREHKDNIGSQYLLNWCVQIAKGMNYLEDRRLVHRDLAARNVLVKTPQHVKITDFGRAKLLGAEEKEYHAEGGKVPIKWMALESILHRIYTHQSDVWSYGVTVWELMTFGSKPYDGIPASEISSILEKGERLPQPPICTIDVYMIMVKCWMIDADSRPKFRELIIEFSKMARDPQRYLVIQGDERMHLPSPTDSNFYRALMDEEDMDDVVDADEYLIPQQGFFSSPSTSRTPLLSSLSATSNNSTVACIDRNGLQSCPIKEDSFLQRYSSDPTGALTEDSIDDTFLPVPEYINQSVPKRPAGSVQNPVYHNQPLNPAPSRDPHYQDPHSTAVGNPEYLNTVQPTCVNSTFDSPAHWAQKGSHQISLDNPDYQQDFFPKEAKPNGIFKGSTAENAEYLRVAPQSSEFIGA
- PROTOCOL: Inhibition of EGF-induced EGFR L858R/T790M double mutant phosphorylation in human NCI-H1975 cells pre-incubated for 1 hr followed by EGF stimulation for 30 mins by Western blot analysis
- Format: cell-based
Reported EC50 values follow for various molecules

Worked cases, EC50 given:
| MOLECULE | EC50 |
| --- | --- |
| C=CC(=O)Nc1cc(Nc2n[nH]c3cc(-c4cn(C)c5ccccc45)ccc23)c(OC)cc1N(C)CCN(C)C | 0.1 to 1 µM |
| C=CC(=O)Nc1cc(Nc2n[nH]c3ccc(-c4ccc(F)cc4)cc23)c(OC)cc1N(C)CCN(C)C | 0.1 to 1 µM |

Entry C=CC(=O)Nc1cc(Nc2n[nH]c3ccc(-c4ccc5ccccc5c4)cc23)c(OC)cc1N(C)CCN(C)C : reported EC50 = ? 1 to 10 µM

====

- TESTED_ON: Epidermal growth factor receptor (Homo sapiens, UniProt P00533)
- Sequence (P00533 whole entry): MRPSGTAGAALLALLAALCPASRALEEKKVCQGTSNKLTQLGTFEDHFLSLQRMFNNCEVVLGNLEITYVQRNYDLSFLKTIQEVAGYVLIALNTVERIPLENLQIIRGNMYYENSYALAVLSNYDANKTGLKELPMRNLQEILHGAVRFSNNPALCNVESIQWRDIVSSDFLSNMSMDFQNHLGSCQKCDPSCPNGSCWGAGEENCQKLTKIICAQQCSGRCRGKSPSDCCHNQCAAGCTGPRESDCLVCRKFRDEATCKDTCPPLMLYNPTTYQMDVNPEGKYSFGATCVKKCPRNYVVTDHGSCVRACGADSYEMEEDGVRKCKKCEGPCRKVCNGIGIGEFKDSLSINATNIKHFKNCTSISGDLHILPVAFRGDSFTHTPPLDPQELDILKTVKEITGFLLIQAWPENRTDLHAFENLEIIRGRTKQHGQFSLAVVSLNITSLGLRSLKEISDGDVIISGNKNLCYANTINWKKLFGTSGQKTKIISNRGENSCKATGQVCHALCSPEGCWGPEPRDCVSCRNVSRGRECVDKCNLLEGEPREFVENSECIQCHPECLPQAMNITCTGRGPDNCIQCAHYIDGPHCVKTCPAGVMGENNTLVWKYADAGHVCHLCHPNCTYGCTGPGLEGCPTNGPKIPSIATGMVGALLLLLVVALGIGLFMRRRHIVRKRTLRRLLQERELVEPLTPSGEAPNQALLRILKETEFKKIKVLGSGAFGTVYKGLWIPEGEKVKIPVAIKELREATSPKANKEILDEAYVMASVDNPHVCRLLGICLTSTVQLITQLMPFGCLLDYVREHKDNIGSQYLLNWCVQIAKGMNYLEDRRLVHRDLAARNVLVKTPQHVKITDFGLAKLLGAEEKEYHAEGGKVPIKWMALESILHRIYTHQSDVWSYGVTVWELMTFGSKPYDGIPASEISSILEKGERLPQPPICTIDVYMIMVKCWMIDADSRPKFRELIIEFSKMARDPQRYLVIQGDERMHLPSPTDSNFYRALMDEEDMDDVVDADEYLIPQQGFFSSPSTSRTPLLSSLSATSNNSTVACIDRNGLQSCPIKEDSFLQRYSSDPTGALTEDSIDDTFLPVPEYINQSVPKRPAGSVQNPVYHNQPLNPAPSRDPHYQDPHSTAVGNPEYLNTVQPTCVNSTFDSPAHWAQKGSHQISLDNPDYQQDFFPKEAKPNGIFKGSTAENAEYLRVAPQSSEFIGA
- PROTOCOL: Inhibition of EGF-induced wild-type EGFR phosphorylation in human A431 cells pre-incubated for 1 hr followed by EGF stimulation for 30 mins by Western blot analysis
- Assay type: cell-based
pEC50: −log10 of the molar value.
VALUE_KIND: pEC50

Entry C=CC(=O)Nc1cc(Nc2n[nH]c3ccc(-c4ccc5ccccc5c4)cc23)c(OC)cc1N(C)CCN(C)C : reported pEC50 = ? 5.00 to 6.00

====

- TESTED_ON: Epidermal growth factor receptor (Homo sapiens, UniProt P00533, L858R)
- PROTOCOL: Reversible inhibition of human N-terminal GST-tagged EGFR L858R mutant cytoplasmic domain (669 to 1210 end amino acid residues) expressed in baculovirus expression system using TK peptide substrate preincubated for 2 to 90 mins followed by 6-fold dilution
- Sequence (P00533 whole entry L858R, the tested form may be a part): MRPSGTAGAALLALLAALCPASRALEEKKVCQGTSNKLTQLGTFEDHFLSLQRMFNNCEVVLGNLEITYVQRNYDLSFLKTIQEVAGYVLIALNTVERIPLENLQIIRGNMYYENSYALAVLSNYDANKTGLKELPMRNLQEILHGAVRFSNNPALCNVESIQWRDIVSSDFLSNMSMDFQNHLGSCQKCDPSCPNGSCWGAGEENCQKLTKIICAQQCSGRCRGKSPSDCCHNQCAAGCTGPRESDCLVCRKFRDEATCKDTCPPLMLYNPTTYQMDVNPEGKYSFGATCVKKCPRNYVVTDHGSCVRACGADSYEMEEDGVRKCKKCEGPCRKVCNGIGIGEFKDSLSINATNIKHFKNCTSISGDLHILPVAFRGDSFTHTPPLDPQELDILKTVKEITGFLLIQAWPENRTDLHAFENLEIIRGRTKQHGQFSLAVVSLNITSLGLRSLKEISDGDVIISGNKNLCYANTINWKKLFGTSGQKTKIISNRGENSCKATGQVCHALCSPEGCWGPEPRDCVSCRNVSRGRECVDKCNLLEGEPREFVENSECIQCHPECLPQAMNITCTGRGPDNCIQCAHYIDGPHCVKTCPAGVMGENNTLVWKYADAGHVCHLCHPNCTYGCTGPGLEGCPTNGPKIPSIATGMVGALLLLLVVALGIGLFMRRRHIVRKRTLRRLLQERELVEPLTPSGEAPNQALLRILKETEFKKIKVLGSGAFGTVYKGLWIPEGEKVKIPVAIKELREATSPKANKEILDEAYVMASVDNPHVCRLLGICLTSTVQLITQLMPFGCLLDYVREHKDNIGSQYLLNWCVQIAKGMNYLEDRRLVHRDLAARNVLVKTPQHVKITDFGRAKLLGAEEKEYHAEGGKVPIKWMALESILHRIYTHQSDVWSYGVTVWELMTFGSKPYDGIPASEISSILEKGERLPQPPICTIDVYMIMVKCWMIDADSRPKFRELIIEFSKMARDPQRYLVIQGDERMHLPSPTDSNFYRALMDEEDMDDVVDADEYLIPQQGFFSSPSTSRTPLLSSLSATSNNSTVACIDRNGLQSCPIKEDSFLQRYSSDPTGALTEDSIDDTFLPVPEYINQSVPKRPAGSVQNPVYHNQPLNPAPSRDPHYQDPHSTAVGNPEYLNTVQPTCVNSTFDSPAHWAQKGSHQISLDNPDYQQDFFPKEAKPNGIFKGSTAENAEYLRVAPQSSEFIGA
VALUE_KIND: Ki (nM)
Enter your answer as a number in nM; do not include the unit.

| MOLECULE | Ki [nM] |
| --- | --- |
| C=CC(=O)Nc1cc(Nc2n[nH]c3cc(Nc4cccc(F)c4)ccc23)c(OC)cc1N(C)CCN(C)C | 3.9 |

Entry C=CC(=O)Nc1cc(Nc2n[nH]c3cc(-c4cn(C)c5ccccc45)ccc23)c(OC)cc1N(C)CCN(C)C : reported Ki = ? 57

Entry C=CC(=O)Nc1cc(Nc2n[nH]c3ccc(-c4ccc5ccccc5c4)cc23)c(OC)cc1N(C)CCN(C)C : reported Ki = ? 105

====

Each entry below carries its measured IC50, system: Epidermal growth factor receptor (Homo sapiens, UniProt P00533, L858R).
Enter your answer as a number in nM; do not include the unit.

Worked cases, IC50 given:
| MOLECULE | UNITS_OF_MEASURE | IC50 |
| --- | --- | --- |
| C=CC(=O)Nc1cc(Nc2n[nH]c3cc(-c4cccc(N(C)C)c4)ccc23)c(OC)cc1N(C)CCN(C)C | nM | 10 |
| C=CC(=O)Nc1cc(Nc2n[nH]c3cc(-c4ccc(F)cc4)ccc23)c(OC)cc1N(C)CCN(C)C | nM | 8.5 |

Let's switch to this compound now.
What IC50 appears in the records for this compound with Epidermal growth factor receptor (Homo sapiens, UniProt P00533, L858R)? C=CC(=O)Nc1cc(Nc2n[nH]c3ccc(-c4cccc5ccccc45)cc23)c(OC)cc1N(C)CCN(C)C 12

====

- TESTED_ON: Epidermal growth factor receptor (Homo sapiens, UniProt P00533)
We label by threshold. Values of IC50 strictly beneath 9 nM are criterion met. Values of 9 nM and up are criterion not met.

| MOLECULE | TESTED_ON | ANSWER_LABEL |
| --- | --- | --- |
| C=CC(=O)Nc1cc(Nc2n[nH]c3ccc(-c4ccc(F)cc4)cc23)c(OC)cc1N(C)CCN(C)C | Epidermal growth factor receptor (Homo sapiens, UniProt P00533) | criterion met |
| C=CC(=O)Nc1cc(Nc2n[nH]c3cc(-c4cccnc4)ccc23)c(OC)cc1N(C)CCN(C)C | Epidermal growth factor receptor (Homo sapiens, UniProt P00533) | criterion not met |
| C=CC(=O)Nc1cc(Nc2n[nH]c3ccc(-c4ccc5ccccc5c4)cc23)c(OC)cc1N(C)CCN(C)C | Epidermal growth factor receptor (Homo sapiens, UniProt P00533) | criterion met |
| C=CC(=O)Nc1cc(Nc2n[nH]c3cc(-c4cn(C)c5ccccc45)ccc23)c(OC)cc1N(C)CCN(C)C | Epidermal growth factor receptor (Homo sapiens, UniProt P00533) | criterion not met |

Moving on to another molecule below.
Is IC50 strictly under 9 nM for the entry C=CC(=O)Nc1cc(Nc2n[nH]c3cc(-c4cccc(C(F)(F)F)c4)ccc23)c(OC)cc1N(C)CCN(C)C ? criterion not met
